Origin of measurements: PubChem BioAssay (NCI)

In this section we review reported TGI values for a set of compounds.
test system: SF-539 CNS; assay: NCI tumour cell line growth inhibition, 48 h
Attribute measured: TGI

• CN1C(=O)[C@](C)(Cc2ccc(F)cc2)N(C(=O)OC(C)(C)C)[C@@H]1C(C)(C)C = > 100 µM
• CCCN(CCC)c1c([N+](=O)[O-])cc(C(N)=O)cc1[N+](=O)[O-] = > 100 µM
• CC(C)c1cc(C(C)C)c(B(c2ccccc2)c2ccccc2)c(C(C)C)c1Br = > 100 µM

====

system: SNB-19 CNS; experiment: NCI tumour cell line growth inhibition, 48 h
Attribute measured: TGI

- CC(C)N(C(=O)C12C3C4C5C3C1(C(=O)N(C(C)C)C(C)C)C5C42)C(C)C (stereo not given): > 100 µM
- CC(=O)OC1CC2C(C)(C)C(=O)C=C[C@]2(C)C2CCC3(C)C(=CCC3[C@H](CO)C[C@H](O)C(=O)C(C)(C)O)[C@]12C (stereo not given in full): > 100 µM
- Oc1[nH]c2ccccc2c1N=NC(=S)NCc1ccccn1: 15.2 µM
- CC(C(=O)C(C)O[Si](c1ccccc1)(c1ccccc1)C(C)(C)C)=P(c1ccccc1)(c1ccccc1)c1ccccc1 (stereo not given): 14.5 µM
- Cc1cccc2c1C(=O)OC2(c1cccc2ccccc12)c1cccc2ccccc12: > 100 µM
- O=C(O)c1ccccc1/C=C1/Nc2ccccc2C1=O: > 100 µM
- Cn1ccnc1C(=O)/C=C/c1ccc(CC(=O)Nc2cc(F)c(F)c(F)c2)cc1: 6.59 µM
- COc1cc2c3c4[n+](cc2c(OC)c1OC)CCC4CCC3 (stereo not given): > 100 µM
- O=C(/C=C(/C=C/c1csc2ccccc12)OB(F)F)/C=C/c1csc2ccccc12: > 50 µM
- COc1ccc2c(c1)/C(=N/OC(C)=O)c1c-2c(Nc2ccc(/C(C)=N/OC(C)=O)cc2)nc2ccccc12: > 100 µM
- CCOC(=O)CCN1C(=O)c2c(NC(=O)C(=O)O)cccc2S1(=O)=O: > 100 µM
- O=C(Nc1ccc(I)cc1F)c1cc(F)ccc1O: > 100 µM
- CCN(CC)Cc1cc(Nc2c3ccc(Cl)cc3nc3c(C)cccc23)ccc1O: 3.29 µM
- NC(=O)COc1ccc(Br)cc1Br: > 100 µM
- Cc1nc2cccc(F)c2c(=O)n1-c1nnc(C2CC2)s1: > 10 µM
- COc1nc2ncc([C@@H](O)[C@H](O)CO)nc2c(=O)[nH]1: > 100 µM
- N#CCCCCCn1c2ccccc2c2c3c(c4c5ccccc5[nH]c4c21)C(=O)N(O)C3=O: > 100 µM
- Cc1cc(=O)oc2c(CN(CCCl)CCCl)c(O)ccc12: > 100 µM
- Cc1nc(C)c(C(=O)NNC(=O)c2ccccc2)cc1C(=O)NNC(=O)c1ccccc1: > 100 µM
- CCOc1c(Cc2ccccc2)c(=O)n2c3ccccc3n3c(=O)n(C)c(=O)c1c23: > 100 µM
- O=[N+]([O-])C1(CO)COC2(OC1)c1ccccc1-c1ccccc12: > 100 µM
- CC(C)(C)C1=CC(O)(c2c3ccccc3c(C3(O)C=C(C(C)(C)C)C(=O)C(C(C)(C)C)=C3)c3ccccc23)C=C(C(C)(C)C)C1=O: > 100 µM
- CC(=O)O[C@H]1CC[C@]2(C=O)[C@H]3CC[C@]4(C)[C@@H](C5=CC(=O)OC5)CC[C@]4(O)[C@@H]3CC[C@]2(O)C1: 2.24 µM
- O=C1CCC(=O)C(C(=O)CCC(=O)Nc2ccc(Cl)cc2)C1 (stereo not given): > 100 µM
- CCc1cc(Nc2nccc(-c3c(-c4ccc(OC)c(C(=O)Nc5c(F)cccc5F)c4)nc4ccccn34)n2)c(OC)cc1N1CCC(N2CCN(S(C)(=O)=O)CC2)CC1: > 100 µM
- CC1CC2OC(=N)C1(C#N)C2(C#N)C#N (stereo not given): > 100 µM
- C=C(C)[C@@H]1CC[C@@H]2C(=CC[C@]3(C)C([C@H](C)CC/C=C(/C)C(=O)O)CC[C@@]23C)[C@@]1(C)CCC(=O)O (stereo not given in full): > 100 µM
- COc1ccc(OC)c(/C=C/C(=O)c2ccc(SC)cc2)c1: 46.5 µM
- O=C(O)CNCc1c2ccccc2nc2ccccc12: > 100 µM
- C/C(=C\COc1ccc2ccc(=O)oc2c1)CCC(=O)C(C)(C)O: > 100 µM
